Recorded measurements of Mean % WT Binding, one per entry
- Tested system: human CD33 D18A (human, UniProt P20138 19-364)
- Sequence (P20138 18-364 D18A limits assumed): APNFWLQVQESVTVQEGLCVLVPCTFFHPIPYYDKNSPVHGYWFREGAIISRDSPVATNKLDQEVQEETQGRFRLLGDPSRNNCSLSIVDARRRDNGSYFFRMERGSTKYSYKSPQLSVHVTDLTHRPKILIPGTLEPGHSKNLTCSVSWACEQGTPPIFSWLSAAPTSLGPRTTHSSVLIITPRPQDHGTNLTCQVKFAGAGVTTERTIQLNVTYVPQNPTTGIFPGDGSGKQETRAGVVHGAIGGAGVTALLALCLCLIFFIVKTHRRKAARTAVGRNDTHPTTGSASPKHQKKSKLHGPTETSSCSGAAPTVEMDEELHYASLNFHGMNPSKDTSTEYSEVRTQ
- Test name: alanine scan, flow cytometry;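 note: HEK293-T cells transiently expressing single-residue alanine mutants of CD33 (alanine swapped to serine), antibody binding read by fluorescence in duplicate, background-subtracted, expressed relative to wild-type CD33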
# output: bare number, implied unit % WT

Before answering, review these 2 worked examples.
Refmab #3 (antibody, V domains shown, Full-length format is human IgG1 Fc silent (PG-LALA); The alanine scan used IgG or Fab) VH: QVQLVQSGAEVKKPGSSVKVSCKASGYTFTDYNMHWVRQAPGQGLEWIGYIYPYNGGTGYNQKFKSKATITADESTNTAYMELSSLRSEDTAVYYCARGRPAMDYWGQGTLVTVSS VL: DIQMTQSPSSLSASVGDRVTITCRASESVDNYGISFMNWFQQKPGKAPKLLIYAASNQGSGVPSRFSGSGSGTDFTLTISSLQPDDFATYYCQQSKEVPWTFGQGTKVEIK	37.8
Refmab #1 (antibody, V domains shown, Full-length format is human IgG1 (Absolute Antibody Ab00283-10.0); The alanine scan used IgG or Fab; also called hP67.6) VH: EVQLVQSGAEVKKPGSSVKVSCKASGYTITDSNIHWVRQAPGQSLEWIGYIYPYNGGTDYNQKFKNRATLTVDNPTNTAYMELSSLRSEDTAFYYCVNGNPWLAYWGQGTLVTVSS VL: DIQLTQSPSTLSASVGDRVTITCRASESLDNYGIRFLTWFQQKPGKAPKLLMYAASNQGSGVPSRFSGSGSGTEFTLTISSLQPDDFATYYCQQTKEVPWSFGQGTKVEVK	78.6

Would you kindly share the measured Mean % WT Binding for Refmab #4 (antibody, V domains shown, Full-length format is human IgG1 Fc silent (PG-LALA); The alanine scan used IgG or Fab) VH: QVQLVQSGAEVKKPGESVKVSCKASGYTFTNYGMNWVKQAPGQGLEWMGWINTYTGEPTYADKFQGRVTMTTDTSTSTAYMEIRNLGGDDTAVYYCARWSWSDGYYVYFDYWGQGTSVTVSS VL: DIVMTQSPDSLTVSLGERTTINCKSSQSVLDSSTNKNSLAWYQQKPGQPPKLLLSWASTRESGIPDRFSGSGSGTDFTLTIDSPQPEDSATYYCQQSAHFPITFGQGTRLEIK ?
110

Would you kindly share the measured Mean % WT Binding for Refmab #2 (antibody, V domains shown, Full-length format is human IgG1 Fc silent (PG-LALA); The alanine scan used IgG or Fab) VH: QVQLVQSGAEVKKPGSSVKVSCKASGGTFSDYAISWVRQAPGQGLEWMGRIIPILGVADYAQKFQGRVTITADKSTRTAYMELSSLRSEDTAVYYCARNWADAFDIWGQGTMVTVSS VL: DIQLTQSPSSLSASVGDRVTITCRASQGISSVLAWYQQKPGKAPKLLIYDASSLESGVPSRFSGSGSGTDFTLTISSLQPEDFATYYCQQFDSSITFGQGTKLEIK ?
119
